Catalogue of DC50 readings, one per entry.
biological target: Human BCL-XL protein (N-terminal HiBiT tagged BCL-XL expressed in HT1080 cells) (Homo sapiens); construct: expressed in transfected cells; host or cells: HT-1080 (ATCC CCL-121), stably transduced with lentivirus pLV-UBC-N-HiBiT-BCL-XL-PGK-puro and selected with puromycin; experiment: HiBiT Based Degradation Assay; type: cell-based; conditions: BCL-XL degradation, HT1080 cells expressing N-HiBiT-BCL-XL, 24 hours incubation, normalized with DMSO control; geometric mean for multiple data points; read-out: EC50 (24 h)
Sequence (Q07817 whole entry): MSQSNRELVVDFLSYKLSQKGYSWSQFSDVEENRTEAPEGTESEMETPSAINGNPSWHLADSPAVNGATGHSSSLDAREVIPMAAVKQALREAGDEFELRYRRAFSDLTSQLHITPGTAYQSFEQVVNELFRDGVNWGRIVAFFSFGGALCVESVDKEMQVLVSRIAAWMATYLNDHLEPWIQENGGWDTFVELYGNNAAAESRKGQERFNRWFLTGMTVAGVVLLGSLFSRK

According to the records, this compound COc1c(NC(=O)CN2CCC3(CC2)CC(Oc2ccc(-c4ccc(N5CCc6ccnc(C(=O)Nc7nc8ccccc8s7)c6C5)nc4C(=O)O)c(C)c2)C3)ccc2c(C3CCC(=O)NC3=O)nn(C)c12 (centres unmarked) displays DC50 of < 0.01 µM

DC50 reported for this compound Cc1cc(OC[C@@H]2C[C@H]2CC2CCN(CC(=O)Nc3ccc4c(C5CCC(=O)NC5=O)nn(C)c4c3)CC2)ccc1-c1ccc(N2CCc3cccc(C(=O)Nc4nc5ccccc5s4)c3C2)nc1C(=O)O (single isomer, unassigned) [Compound 1002c] : < 0.01 µM

The measured DC50 associated with Cn1nc(C2CCC(=O)NC2=O)c2ccc(NC(=O)CN3CCC4(CC3)CC(Oc3cccc(-c5ccc(N6CCc7cccc(C(=O)Nc8nc9ccccc9s8)c7C6)nc5C(=O)O)c3C(F)(F)F)C4)cc21 (centres unmarked) reads < 0.01 µM

Cc1c(OCCC[C@@H]2CCN(CC(=O)Nc3ccc4c(C5CCC(=O)NC5=O)nn(C)c4c3)[C@H](C)C2)cccc1-c1ccc(N2CCc3ccnc(C(=O)Nc4nc5ccccc5s4)c3C2)nc1C(=O)O (some centres unmarked) [Compound 216d] yielded DC50 of 0.01 to 0.1 µM

// recorded DC50 for Cc1c(OCC2CC3(CCN(CCOc4ccc5c(C6CCC(=O)NC6=O)nn(C)c5c4)CC3)C2)cccc1-c1ccc(N2CCc3cccc(C(=O)Nc4nc5ccccc5s4)c3C2)nc1C(=O)O (centres unmarked) : < 0.01 µM
